test: Cytotoxicity test; assay type: cell-based; conditions: human, Caco-2 cells
Readout name: IC50 at 24 h (mM)
Field: numeric (mM). Do not append units.

**Q:** Name the reported IC50 at 24 h value associated with the compound Cc1ccc(S(=O)(=O)NC(=O)NN2CC3CCCC3C2)cc1 (stereo not shown) [GLI, Gliclazide]
**A:** 20.8

* * *

assay: Partition coefficients by shake-flask method; format: physicochemical; conditions: n-octanol/PBS 7.4, pH 7.4
Readout name: logD
Note: the reply should be a number with no unit written.

**Q:** Consider the compound shown here: Cc1ccc(S(=O)(=O)NC(=O)NN2CC3CCCC3C2)cc1 (stereo not shown) [GLI, Gliclazide] What is its recorded logD?
**A:** 0.45

* * *

experiment: Equilibrium solubility; format: physicochemical; details: Milli-Q water, 37 °C, water, thermodynamic from solid
Readout name: solubility at 24 h

**Q:** I am curious: what solubility at 24 h value has been reported for Cc1ccc(S(=O)(=O)NC(=O)NN2CC3CCCC3C2)cc1 (stereo not shown) [GLI, Gliclazide] ?
**A:** 43.5 µg/mL

* * *

assay: Partition coefficients by shake-flask method; type: physicochemical; conditions: n-octanol/water
Readout name: logP

**Q:** What does the data say about its logP? Entry: Cc1ccc(S(=O)(=O)NC(=O)NN2CC3CCCC3C2)cc1 (stereo not shown) [GLI, Gliclazide]
**A:** 1.71

* * *

test: 24 h kinetic saturation solubilities; format: physicochemical; settings: Milli-Q water
Readout name: solubility kinetic at 12 h

**Q:** Look up solubility kinetic at 12 h: Cc1ccc(S(=O)(=O)NC(=O)NN2CC3CCCC3C2)cc1 (stereo not shown) [GLI, Gliclazide]
**A:** 40.3 µg/mL

* * *

test: Equilibrium solubility; assay type: physicochemical; conditions: Tris buffer pH 6.5, pH 6.5
Readout name: solubility thermodynamic at 24 h

**Q:** Return reported solubility thermodynamic at 24 h; argument: Cc1ccc(S(=O)(=O)NC(=O)NN2CC3CCCC3C2)cc1 (stereo not shown) [GLI, Gliclazide]
**A:** 178 µg/mL

* * *

assay: Equilibrium solubility; type: physicochemical; details: FaSSIF, 37 °C, pH 6.5, fassif, thermodynamic from solid
Readout name: solubility at 24 h (µg/mL)
Numbers only; they are read as µg/mL.

**Q:** // query solubility at 24 h value for entry Cc1ccc(S(=O)(=O)NC(=O)NN2CC3CCCC3C2)cc1 (stereo not shown) [GLI, Gliclazide]
**A:** 196

* * *

test: Equilibrium solubility; format: physicochemical; conditions: PBS 7.4, 37 °C, pH 7.4, aqueous buffer, thermodynamic from solid
Readout name: solubility at 24 h (µg/mL)
Answer in µg/mL, number only, no unit symbol.

**Q:** What does the data say about its solubility at 24 h? Entry: Cc1ccc(S(=O)(=O)NC(=O)NN2CC3CCCC3C2)cc1 (stereo not shown) [GLI, Gliclazide]
**A:** 1590

* * *

experiment: Equilibrium solubility; assay type: physicochemical; conditions: SIF, 37 °C, pH 6.8, fassgf or other biorelevant, thermodynamic from solid
Readout name: solubility at 24 h (µg/mL)
Kindly provide the numeric value in µg/mL only, without the unit symbol.

**Q:** Field request: solubility at 24 h | item: Cc1ccc(S(=O)(=O)NC(=O)NN2CC3CCCC3C2)cc1 (stereo not shown) [GLI, Gliclazide]
**A:** 584

* * *

experiment: Gastrointestinal tract parallel artificial membrane permeability assay; assay type: in vitro ADME; conditions: PAMPA
Readout name: Papp at 16 h, 150 μg ml^−1 (×10⁻⁶ cm/s)
Answer in ×10⁻⁶ cm/s, number only, no unit symbol.

**Q:** Record request: Papp at 16 h, 150 μg ml^−1 value, item Cc1ccc(S(=O)(=O)NC(=O)NN2CC3CCCC3C2)cc1 (stereo not shown) [GLI, Gliclazide]
**A:** 2.46
